measured.target: UniProt P0C6U8
attribute.measured: pIC50
# pIC50 is unitless: minus log10 of the molar concentration; print number only

CCOC(=O)/C=C/[C@H](C[C@@H]1CCNC1=O)NC(=O)[C@@H](CC(=O)[C@@H](NC(=O)c1cc(C)on1)C(C)C)Cc1ccc(F)cc1 [rupintrivir] tested on UniProt P0C6U8 gave pIC50: 4.18
